System: Vero E6 infected with SARS-CoV-2
Assay: morphology score (similarity to uninfected cells); higher = more like uninfected cells
Conditions: 24 h
property: morphology score

* N=C(N)c1ccc(-c2ccc(-c3ccc(C(=N)N)cc3)o2)cc1 [furamidine] (10 µM) | -0.436
* CCCCc1nc(C)c(CC(=S)N(C)C)c(=O)n1Cc1ccc(-c2ccccc2-c2nnn[nH]2)cc1 [fimasartan] (10 µM) | 0.0951
* CCCCCCCC/C=C\CCCCCCCC(=O)NCc1ccc(O)c(OC)c1 [olvanil] (10 µM) | 0.22
* CCNC1=Nc2ccc(Cl)cc2C(C)(c2ccccc2)O1 (configuration not stated) [etifoxine] (10 µM) | 0.159
* CC(C)C[C@H](NC(=O)[C@H](CCc1ccccc1)NC(=O)CN1CCOCC1)C(=O)N[C@@H](Cc1ccccc1)C(=O)N[C@@H](CC(C)C)C(=O)[C@@]1(C)CO1 [carfilzomib] (0.833333 µM) | 0.00273
* Clc1ccc(C(Cn2ccnc2)OCc2c(Cl)cccc2Cl)c(Cl)c1 (configuration not stated) [isoconazole] (10 µM) | 0.222
* Fc1ccccc1-c1nc2ccn(Cc3ccc(-c4ccc(C(F)(F)F)cc4C(F)(F)F)nn3)cc-2n1 [tegobuvir] (10 µM) | 0.081
